# Tested on: NCI-H460
# PROTOCOL_SUMMARY: NCI tumour cell line growth inhibition, 48 h
The source made the active and inactive calls. No stated cut-off is given here; in the data, active = GI50 up to about 1.1 µM and inactive = higher.
QUANTITY_KIND: GI50

[[record]]
compound = "COc1ccc(-c2nc(N)n(C)c2SSc2c(-c3ccc(OC)cc3)nc(N)n2C)cc1"
quantity_kind = "GI50"
result = "20.8 µM (inactive)"

[[record]]
compound = "S=C(Nc1ccc(/N=N/c2ccccc2)cc1)SCc1ccccc1"
quantity_kind = "GI50"
result = "20.2 µM (inactive)"

[[record]]
compound = "COc1cc(/C=C\\c2ccc(O)cc2)cc(OC)c1OC"
quantity_kind = "GI50"
result = "3.33 µM (inactive)"

[[record]]
compound = "CC(=O)OC(CC(C)C)P1(=O)N(CC(C)(C)C)[C@@H]2CCCC[C@H]2N1CC(C)(C)C (stereo not given in full)"
quantity_kind = "GI50"
result = "8.57 µM (inactive)"

[[record]]
compound = "O=C(O)c1ccc(OCc2nc3cc(C(F)(F)F)ccc3nc2-c2ccccc2)cc1"
quantity_kind = "GI50"
result = "24.7 µM (inactive)"

[[record]]
compound = "COC(C(=O)NCCCCNC(=O)C(OC)c1ccccc1)c1ccccc1 (stereo not given)"
quantity_kind = "GI50"
result = "> 100 µM (inactive)"

[[record]]
compound = "CC(C)C(NCc1c2ccccc2nc2ccccc12)C(=O)O (stereo not given)"
quantity_kind = "GI50"
result = "31.1 µM (inactive)"

[[record]]
compound = "Nc1ccccc1.O=P(O)(OP(=O)(O)c1ccccc1)c1ccccc1"
quantity_kind = "GI50"
result = "> 100 µM (inactive)"

[[record]]
compound = "CC1=CC(=O)N2[C@H](OC[C@@H]2C(C)C)O1"
quantity_kind = "GI50"
result = "> 100 µM (inactive)"

[[record]]
compound = "Cc1c2c(n(CC(c3ccccc3)c3ccccc3)c1C)NN=C(C#N)S2(=O)=O"
quantity_kind = "GI50"
result = "> 100 µM (inactive)"


----------
# GI50 values compiled below
# Tested on: HCT-15
QUANTITY_KIND: GI50 (µM)

[[record]]
molecule = "Cc1nc(Nc2ccc(Cl)cc2)sc1C(=O)NNC(=O)C(=O)NN"
limit_sign = "="
quantitative_result = 17.1

[[record]]
molecule = "CN1C(=O)CC2CCC(=O)N2c2cccnc21 (stereo unspecified)"
limit_sign = ">"
quantitative_result = 100

[[record]]
molecule = "COc1ccc2c(c1)[n+]([O-])c(-c1ccccc1Cl)c(N)[n+]2[O-]"
limit_sign = "="
quantitative_result = 39.9

[[record]]
molecule = "C=CCc1ccccc1CC1(OCC)OC(=O)c2ccccc21 (stereo unspecified)"
limit_sign = "="
quantitative_result = 42.3

[[record]]
molecule = "CCCC(CC)c1cc(O)c(O)cc1C(CC)CCC (stereo unspecified)"
limit_sign = ">"
quantitative_result = 10

[[record]]
molecule = "C=CO/N=[N+](\\[O-])N(CC)CC"
limit_sign = ">"
quantitative_result = 100


----------
# Tested on: OVCAR-3
# PROTOCOL_SUMMARY: NCI tumour cell line growth inhibition, 48 h
Calls of active or inactive are those of the source. Rule as the data show it: active = GI50 up to about 1.1 µM and inactive = higher.
QUANTITY_KIND: GI50

[[record]]
compound = "CCOc1ccccc1/N=N/c1c(-c2ccccc2)nn(C(=O)CC(=O)Nc2cccc(C)c2)c1-c1ccccc1"
result = "> 100 µM (inactive)"

[[record]]
compound = "CCOP(=O)(OCC)C(Nc1cccc(F)c1)c1ccc(N(C)C)cc1 (stereo unspecified)"
result = "> 100 µM (inactive)"

[[record]]
compound = "O=C1c2cccc3cccc(c23)C2NCCCN12 (stereo unspecified)"
result = "> 100 µM (inactive)"

[[record]]
compound = "CCOC(=O)c1c(C)c2c(n1C)CCc1c[nH]nc1-2"
result = "> 100 µM (inactive)"

[[record]]
compound = "COC(=O)/C(=C(/C)c1ccco1)P(=O)(OC)OC"
result = "> 100 µM (inactive)"

[[record]]
compound = "CSC1=C(C#N)C(=O)N(c2ccc(C)cc2)C(=O)C1C#N (stereo unspecified)"
result = "> 100 µM (inactive)"

[[record]]
compound = "CCOC(=O)NC(C(F)(F)F)(C(F)(F)F)P(=O)(OCC)OCC"
result = "45.2 µM (inactive)"

[[record]]
compound = "COc1ccc(CNc2cnc3cc(N)ccc3n2)cc1"
result = "> 100 µM (inactive)"

[[record]]
compound = "O=c1c2cc(S(=O)(=O)Nc3ccccc3Cl)ccc2ncn1NS(=O)(=O)c1ccc(Br)cc1"
result = "> 37.5 µM (inactive)"

[[record]]
compound = "O=C(/C=C/c1ccccc1Cl)c1ccccc1Cl"
result = "18.9 µM (inactive)"

[[record]]
compound = "CCN(CC)C(=S)SS(=O)(=O)c1ccc(C)cc1"
result = "39.6 µM (inactive)"

